- tgt: T1, soluble human CD40 extracellular domain (human, UniProt P25942 21-193)
- T1 construct: Produced in house; also called hCD40; soluble hCD40 extracellular domain
- assay_protocol: SPR, Ab captured from supernatant on protein A, hCD40 ECD analyte
measured_parameter: Kd (nM)

| binder | val |
| --- | --- |
| M62 (HC-K74T / LC-K45Q,R54Q,R61Q) (antibody, human IgG1, kappa, V domains shown, IgG1-P238K; also called HC14/LC4) VH: QVQLVQSGAEVKKPGSSVKVSCKASGYAFTSYWMHWVRQAPGQGLEWMGQINPTTGRSQYNEKFKTRVTITADTSTSTAYMELSSLRSEDTAVYYCARWGLQPFAYWGQGTLVTVSS VL: DIQMTQSPSFLSASVGDRVTITCKASQDVSTAVAWYQQKPGKAPQLLIYSASYQYTGVPSQFSGSGSGTDFTLTISSLQPEDFATYYCQQHYSTPWTFGGGTKVEIKR | 3.1 |
| M27 (HC-R57E / LC-K45Q) (antibody, human IgG1, kappa, V domains shown, IgG1-P238K; also called HC11/LC2) VH: QVQLVQSGAEVKKPGSSVKVSCKASGYAFTSYWMHWVRQAPGQGLEWMGQINPTTGESQYNEKFKTRVTITADKSTSTAYMELSSLRSEDTAVYYCARWGLQPFAYWGQGTLVTVSS VL: DIQMTQSPSFLSASVGDRVTITCKASQDVSTAVAWYQQKPGKAPQLLIYSASYRYTGVPSRFSGSGSGTDFTLTISSLQPEDFATYYCQQHYSTPWTFGGGTKVEIKR | 10.4 |
| M31 (HC-R67Q / LC-K45Q) (antibody, human IgG1, kappa, V domains shown, IgG1-P238K; also called HC15/LC2) VH: QVQLVQSGAEVKKPGSSVKVSCKASGYAFTSYWMHWVRQAPGQGLEWMGQINPTTGRSQYNEKFKTQVTITADKSTSTAYMELSSLRSEDTAVYYCARWGLQPFAYWGQGTLVTVSS VL: DIQMTQSPSFLSASVGDRVTITCKASQDVSTAVAWYQQKPGKAPQLLIYSASYRYTGVPSRFSGSGSGTDFTLTISSLQPEDFATYYCQQHYSTPWTFGGGTKVEIKR | 3.1 |
| M28 (HC-R57E,K74Q / LC-K45Q) (antibody, human IgG1, kappa, V domains shown, IgG1-P238K; also called HC12/LC2) VH: QVQLVQSGAEVKKPGSSVKVSCKASGYAFTSYWMHWVRQAPGQGLEWMGQINPTTGESQYNEKFKTRVTITADQSTSTAYMELSSLRSEDTAVYYCARWGLQPFAYWGQGTLVTVSS VL: DIQMTQSPSFLSASVGDRVTITCKASQDVSTAVAWYQQKPGKAPQLLIYSASYRYTGVPSRFSGSGSGTDFTLTISSLQPEDFATYYCQQHYSTPWTFGGGTKVEIKR | 15.7 |
| M73 (HC-K63Q,R67E / LC-R61Q) (antibody, human IgG1, kappa, V domains shown, IgG1-P238K; also called HC9/LC5) VH: QVQLVQSGAEVKKPGSSVKVSCKASGYAFTSYWMHWVRQAPGQGLEWMGQINPTTGRSQYNEQFKTEVTITADKSTSTAYMELSSLRSEDTAVYYCARWGLQPFAYWGQGTLVTVSS VL: DIQMTQSPSFLSASVGDRVTITCKASQDVSTAVAWYQQKPGKAPKLLIYSASYRYTGVPSQFSGSGSGTDFTLTISSLQPEDFATYYCQQHYSTPWTFGGGTKVEIKR | 3 |
